# System Name: T1, 4H953-AA
# T1 chain: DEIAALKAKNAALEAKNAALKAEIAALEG
# Protocol Description: two-hybrid library CCmax;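 also: natural log of median RNA to DNA barcode read ratio; higher means stronger binding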
# Condition Parameters: mean of both orientations
Measurement Label: interaction score

Sample answers from the record:
Binder | interaction score
DEIAALKAENAALKAEIAALKAKIAALEG [4H717-AA] | -1.87
DEIAALKAENAALEAKIAALKAKNAALEG [4H687-AA] | -1.39
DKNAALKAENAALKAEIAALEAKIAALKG [4H3782-AA] | -1.68
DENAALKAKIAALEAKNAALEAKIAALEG [4H1845-AA] | -1.52
DKIAALEAKNAALEAEIAALKAEIAALKG [4H2442-AA] | -1.67

I: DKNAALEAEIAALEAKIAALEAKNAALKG [4H3112-AA]
II: DEIAALKAKNAALEAENAALEAKIAALKG [4H918-AA]
Qu. Larger number for interaction score: I , or II ? Identify your pick by its label.
Ans. II
(II: 2.09, I: -1.62)

A: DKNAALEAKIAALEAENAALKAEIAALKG [4H3354-AA]
B: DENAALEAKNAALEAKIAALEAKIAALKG [4H1446-AA]
Qu. Larger number for interaction score: A , or B ? Identify your pick by its label.
Ans. B
(B: -0.751, A: -1.6)

I: DEIAALKAKIAALKAKNAALEAENAALEG [4H883-AA]
II: DEIAALKAKIAALEAENAALKAKIAALEG [4H797-AA]
Qu. // compare: I vs II , metric interaction score, want the smaller Identify your pick by its label.
Ans. I
